Data origin: patent US11981658B2

Form field: IC50 (one value per entry).
assayTarget: EGFR L858R/T790M/C797S (Homo sapiens, UniProt P00533, C797S/L858R/T790M)
Sequence (P00533 25-1210 T790M/C797S/L858R): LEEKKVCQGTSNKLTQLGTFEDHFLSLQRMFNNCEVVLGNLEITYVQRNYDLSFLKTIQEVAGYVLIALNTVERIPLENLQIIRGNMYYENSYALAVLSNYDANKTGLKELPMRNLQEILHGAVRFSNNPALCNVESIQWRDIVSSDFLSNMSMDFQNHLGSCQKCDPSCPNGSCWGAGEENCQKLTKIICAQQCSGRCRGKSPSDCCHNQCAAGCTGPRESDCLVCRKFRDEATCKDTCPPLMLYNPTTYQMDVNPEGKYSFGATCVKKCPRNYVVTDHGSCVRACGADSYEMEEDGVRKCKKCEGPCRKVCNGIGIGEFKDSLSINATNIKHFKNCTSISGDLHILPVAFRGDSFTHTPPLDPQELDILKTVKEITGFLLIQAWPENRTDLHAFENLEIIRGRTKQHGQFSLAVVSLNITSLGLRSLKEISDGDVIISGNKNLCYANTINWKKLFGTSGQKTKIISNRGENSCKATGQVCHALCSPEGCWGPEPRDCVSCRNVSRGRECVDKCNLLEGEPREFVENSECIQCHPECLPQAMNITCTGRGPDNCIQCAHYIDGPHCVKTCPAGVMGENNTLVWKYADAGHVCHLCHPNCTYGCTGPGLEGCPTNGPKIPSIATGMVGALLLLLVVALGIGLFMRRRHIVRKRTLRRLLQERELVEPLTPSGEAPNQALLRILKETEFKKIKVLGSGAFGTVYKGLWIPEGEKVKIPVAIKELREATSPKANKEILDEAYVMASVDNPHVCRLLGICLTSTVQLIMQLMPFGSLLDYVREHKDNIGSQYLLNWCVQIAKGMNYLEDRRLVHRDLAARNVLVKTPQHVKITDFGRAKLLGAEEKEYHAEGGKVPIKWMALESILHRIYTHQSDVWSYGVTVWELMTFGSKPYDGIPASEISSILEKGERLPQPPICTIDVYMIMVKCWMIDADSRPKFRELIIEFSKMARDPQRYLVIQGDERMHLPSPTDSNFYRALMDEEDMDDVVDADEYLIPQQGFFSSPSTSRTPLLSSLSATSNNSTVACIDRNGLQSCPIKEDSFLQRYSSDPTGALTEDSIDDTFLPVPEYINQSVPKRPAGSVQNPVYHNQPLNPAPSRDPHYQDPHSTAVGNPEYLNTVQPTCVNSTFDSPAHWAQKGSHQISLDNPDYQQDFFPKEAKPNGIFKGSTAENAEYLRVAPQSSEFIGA
measurementNotes: Biochemical EGFR kinase inhibition assay (Lance Ultra TR-FRET), triple mutant L858R/T790M/C797S
studyConditions: IC50 L858R/T790M/C797S (nM), 100 μM ATP
assayReadout: IC50

CC1(O)CCN(c2cc(Nc3ccnc(-c4cnn(S(=O)(=O)C5CC5)c4)n3)ncc2C#CC2CCO[C@H]2C(F)(F)F)CC1 (some centres unmarked) :: 2.6 nM
CC1(CO)CCN(c2cc(Nc3ccnc(-c4cnn(S(=O)(=O)C5CC5)c4)n3)ncc2C#CC2CCCC2)CC1 :: 5.3 nM
O=S(=O)(C1CC1)n1cc(-c2nccc(Nc3cc(NCC4CCC(O)CC4)c(C#CC4CCCO4)cn3)n2)cn1 (centres unmarked) :: 8 nM
CN(C)CCNC1CCN(c2cc(Nc3ccnc(-c4cnn(S(=O)(=O)C5CC5)c4)n3)ncc2C#Cc2cnn(C(F)(F)F)c2)CC1 :: 0.9 nM
Cc1nc(C#Cc2cnc(Nc3ccnc(-c4cnn(S(=O)(=O)C5CC5)c4)n3)cc2N[C@H]2CC[C@H](O)C2)cs1 :: 12.2 nM
CN(C)C(=O)c1cccc(C#Cc2cnc(Nc3ccnc(-c4cnn(S(=O)(=O)C5CC5)c4)n3)cc2N2CCC(C)(CO)CC2)n1 :: 0.8 nM
CC1(CO)CCN(c2cc(Nc3ccnc(-c4cnn(S(=O)(=O)C5CC5)c4)n3)ncc2C#Cc2cnn(CC(F)(F)F)c2)CC1 :: 0.8 nM
CC1(CO)CCN(c2cc(Nc3ccnc(-c4cnn(S(=O)(=O)C5CC5)c4)n3)ncc2C#Cc2cnn3c2CNCC3)CC1 :: 0.2 nM
CC1OCCC1C#Cc1cnc(Nc2ccnc(-c3cnn(S(=O)(=O)C4CC4)c3)n2)cc1N1CCC(C)(O)CC1 (centres unmarked) :: 0.7 nM
CN(C)CCn1cc(C#Cc2cnc(Nc3ccnc(-c4cnn(S(=O)(=O)C5CC5)c4)n3)cc2N2CCC(NCCF)CC2)cn1 :: 0.4 nM
CN(C)CC1(C)CCN(c2cc(Nc3ccnc(-c4cnn(S(=O)(=O)C5CC5)c4)n3)ncc2C#Cc2cnn(C)c2)CC1 :: 0.3 nM
C[C@H](Nc1cc(Nc2ccnc(-c3cnn(S(=O)(=O)C4CC4)c3)n2)ncc1C#Cc1cnn(C)c1)C(C)(C)O :: 44.3 nM
CN1CCN(Cc2ccc(C#Cc3cnc(Nc4ccnc(-c5cnn(S(=O)(=O)C6CC6)c5)n4)cc3N[C@H]3CC[C@]4(CCC(=O)N4)CC3)cc2)CC1 :: 0.6 nM
CC(C)CCNC1CCN(c2cc(Nc3ccnc(-c4cnn(S(=O)(=O)C5CC5)c4)n3)ncc2C#Cc2cnn(C)c2)CC1 :: 5.6 nM
O=S(=O)(C1CC1)n1cc(-c2nccc(Nc3cc(N[C@H]4CC[C@@H](O)CC4)c(C#Cc4ccc(CN5CCOCC5)cn4)cn3)n2)cn1 :: 2.1 nM
CN(C)C[C@@H]1CCCN(c2cc(Nc3ccnc(-c4cnn(S(=O)(=O)C5CC5)c4)n3)ncc2C#Cc2cnn(C)c2)C1 :: 3.1 nM
CC(=O)N1CCC(n2cc(C#Cc3cnc(Nc4ccnc(-c5cnn(S(=O)(=O)C6CC6)c5)n4)cc3N3CCC(F)(CO)CC3)cn2)CC1 :: 1.3 nM
CN(C)CCC1CCN(c2cc(Nc3ccnc(-c4cnn(S(=O)(=O)C5CC5)c4)n3)ncc2C#CC2CCN(C(=O)C(F)(F)F)C2)CC1 (centres unmarked) :: 1.4 nM
O=S(=O)(C1CC1)n1cc(-c2nccc(Nc3cc(N[C@H]4CC[C@@H](O)CC4)c(C#Cc4ccc(CN5CCOCC5)cc4)cn3)n2)cn1 :: 4.6 nM
Cn1cc(C#Cc2cnc(Nc3ccnc(-c4cnn(S(=O)(=O)C5CC5)c4)n3)cc2N2CCCC(O)CC2)cn1 (centres unmarked) :: 3.6 nM
CC1(CO)CCN(c2cc(Nc3ccnc(-c4cnn(S(=O)(=O)C5CC5)c4)n3)ncc2C#Cc2cnn(C3CC3)c2)CC1 :: 3.5 nM
O=S(=O)(C1CC1)n1cc(-c2nccc(Nc3cc(N4CCC(C5(O)CC5)CC4)c(C#Cc4cnn(C(F)(F)F)c4)cn3)n2)cn1 :: 6.2 nM
O=S(=O)(C1CC1)n1cc(-c2nccc(Nc3cc(NC4CCC(CO)CC4)c(C#Cc4cnn(C5CC5(F)F)c4)cn3)n2)cn1 (centres unmarked) :: 1.5 nM
Cn1cc(C#Cc2cnc(Nc3ccnc(-c4cnn(S(=O)(=O)C5CC5)c4)n3)cc2N2CCC(NCCC(F)(F)F)CC2)cn1 :: 1.8 nM
O=S(=O)(C1CC1)n1cc(-c2nccc(Nc3cc(N4CCC(CCO)CC4)c(C#Cc4cnn(CCF)c4)cn3)n2)cn1 :: 6.1 nM
CC1OCCC1C#Cc1cnc(Nc2ccnc(-c3cnn(S(=O)(=O)C4CC4)c3)n2)cc1NCC1CCC(O)CC1 (centres unmarked) :: 4.7 nM
